# Test Target: tau 1N4R (UniProt P10636-7 1-412)
# Sequence (P10636 other isoform, or with tags, fused parts or gaps): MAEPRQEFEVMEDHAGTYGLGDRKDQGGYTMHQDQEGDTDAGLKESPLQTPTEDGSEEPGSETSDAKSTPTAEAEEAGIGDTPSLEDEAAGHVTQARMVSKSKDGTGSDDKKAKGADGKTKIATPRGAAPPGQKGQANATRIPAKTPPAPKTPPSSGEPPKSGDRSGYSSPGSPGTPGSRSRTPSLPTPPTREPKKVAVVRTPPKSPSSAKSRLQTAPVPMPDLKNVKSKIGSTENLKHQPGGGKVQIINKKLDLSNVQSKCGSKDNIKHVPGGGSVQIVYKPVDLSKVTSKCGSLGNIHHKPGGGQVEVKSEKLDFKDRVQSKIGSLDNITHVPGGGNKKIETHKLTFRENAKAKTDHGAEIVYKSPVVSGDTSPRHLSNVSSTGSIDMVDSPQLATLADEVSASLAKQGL
# Assay Info: EMSA; 10 mM NaCl; Hill fit; EMSA: 20 nM DNA or nucleosome, 20 mM HEPES pH 7.2, 10 mM NaCl (or 150), 0.5 mM TCEP, 0.1% Tween-20, 5% sucrose, room temperature 20 min; FA: 10 nM DNA, same buffer with 10 mM NaCl, 0.01% NP-40 substitute, room temperature 10 min
# Assay Conditions: protein: recombinant; tags: none stated; label: 5' 6-FAM on strand 1; blunt

# Binder, Kd (nM)
records = [
    ("22 bp DNA (dsDNA) DNA 1: ATTTAGAAATGTCCACTGTAGG DNA 2: CCTACAGTGGACATTTCTAAAT", 112),
]
